Known FPN IC50 of a selection of binders
Target: T1, human ferroportin (SLC40A1) fused with GFP, stably expressed in HEK293 cells (human, UniProt Q9NP59 1-571)
T1 sequence (looked up): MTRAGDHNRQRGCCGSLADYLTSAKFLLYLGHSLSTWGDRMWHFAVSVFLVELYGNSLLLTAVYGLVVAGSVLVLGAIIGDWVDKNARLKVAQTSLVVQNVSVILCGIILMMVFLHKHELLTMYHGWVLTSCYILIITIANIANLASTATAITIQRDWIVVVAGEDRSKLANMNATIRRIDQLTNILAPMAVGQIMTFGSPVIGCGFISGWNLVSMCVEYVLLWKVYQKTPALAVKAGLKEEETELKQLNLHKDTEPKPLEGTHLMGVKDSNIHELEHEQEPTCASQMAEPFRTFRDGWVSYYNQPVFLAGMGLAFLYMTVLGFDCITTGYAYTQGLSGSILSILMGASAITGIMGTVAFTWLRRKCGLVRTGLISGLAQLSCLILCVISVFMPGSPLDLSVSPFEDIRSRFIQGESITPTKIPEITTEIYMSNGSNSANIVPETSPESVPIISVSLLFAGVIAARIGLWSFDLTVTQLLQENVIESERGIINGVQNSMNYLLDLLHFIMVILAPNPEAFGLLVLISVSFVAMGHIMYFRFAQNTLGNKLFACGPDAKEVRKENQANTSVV
Assay: cell-based or functional assay
Starred links: 1 amine or outer side, 2 acyl side, 3 side chain; linkers in the order of their positions; H or OH if unused. Positions of bridges follow the written chain, without caps; N, C: chain ends. Non-standard residues stand in square brackets, D forms with d. Groups on a side chain read outwards from the residue. Primed or numbered codes have the meaning given here. *: point of attachment. PEG4′ = bifunctional PEG linker with 4 polyethylene glycol units; γGlu = O=C(O)[C@H](CCC(=O)[*:2])N[*:1]; Palmitoyl = CCCCCCCCCCCCCCCC(=O)*; Isovaleryl = CC(C)CC(=O)*; Ahx = NCCCCCC(=O)O
Lab book: enter the figure in nM, no units written.

DTHXPCIKFKKC (Isovaleric acid-DTH-[b-hPhe]-PCI-[(D)Lys]-F-[Lys(Peg11-Palm)]-[(D)Lys]-C-NH2) [Compd ID 121] ... 9
Isovaleryl-DTHFPCI[dK]FK([Ahx-Palmitoyl])KC-NH2 (disulfide 6-12 (inferred)) [Compd ID 86] ... 9

Please look at the following binder next.
Query: Could you tell me which FPN IC50 is on file for Isovaleryl-DTHFPCI[dK]FK([PEG4′-γGlu-Palmitoyl])KC-NH2 (disulfide 6-12 (inferred)) [Compd ID 94] ?
Response: 9

// data source = patent US20200361992A1
